system: ATP; experiment: switch fluorescence ratio, 500 uM ATP over buffer (Cy3 cluster intensity, sum of 5 cycles each) (fold (ratio)); higher = stronger signal-on switching upon ATP binding; sequences stand for … in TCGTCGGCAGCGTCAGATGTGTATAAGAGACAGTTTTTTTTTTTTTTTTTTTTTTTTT…TC; conditions: aptamer strand: ATP DNA aptamer (quencher-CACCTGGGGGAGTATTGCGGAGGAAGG + anchor), 100 nM annealed; ATP concentration: 500 uM;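 also: ATP exposure 15 min at 22 °C before imaging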
The threshold is inclusive: switch fluorescence ratio of exactly 1 counts as MET; values below receive NOT MET.

Examples from the recorded data:
AGAGCAGGGA | NOT MET
TTTAGTAAAC | MET
GACGGAGAGA | MET
GTGCTGGTTT | MET
TTATCATACG | MET

INPUT: Would you say `CGGCAGGCTC` shows switch fluorescence ratio at minimum 1?
OUTPUT: MET

###

system: ATP; experiment: switch fluorescence ratio, 500 uM ATP over buffer (Cy3 cluster intensity, sum of 5 cycles each) (fold (ratio)); higher = stronger signal-on switching upon ATP binding; sequences stand for … in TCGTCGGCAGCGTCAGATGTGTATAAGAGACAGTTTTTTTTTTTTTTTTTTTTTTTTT…TC; details: aptamer strand: ATP DNA aptamer (quencher-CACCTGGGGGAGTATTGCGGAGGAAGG + anchor), 100 nM annealed; ATP concentration: 500 uM;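 also: ATP exposure 15 min at 22 °C before imaging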
readout kind: switch fluorescence ratio
Write no unit; give the number alone.

Here's what some known entries look like.
AGGGACGTAG | 1.05
AGGGGAAAAT | 0.996
CCCAGCTTGT | 1.03
TCGTTCTGAA | 0.974

INPUT: Give measured switch fluorescence ratio for `ACTCGGAATT` (ATP).
OUTPUT: 1.12

INPUT: Give measured switch fluorescence ratio for `CAAGAGGGGT` (ATP).
OUTPUT: 1.01

INPUT: Give measured switch fluorescence ratio for `ATTTTGAACA` (ATP).
OUTPUT: 1.02

INPUT: Give measured switch fluorescence ratio for `TAAGGCCTGT` (ATP).
OUTPUT: 0.998

INPUT: Give measured switch fluorescence ratio for `CCGTGAGGTG` (ATP).
OUTPUT: 1.13

###

switch fluorescence ratio overview
test system: ATP; assay: switch fluorescence ratio, 500 uM ATP over buffer (Cy3 cluster intensity, sum of 5 cycles each) (fold (ratio)); higher = stronger signal-on switching upon ATP binding; sequences stand for … in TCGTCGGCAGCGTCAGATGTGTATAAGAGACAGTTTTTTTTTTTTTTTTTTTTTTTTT…TC; conditions: aptamer strand: ATP DNA aptamer (quencher-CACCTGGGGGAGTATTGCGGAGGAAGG + anchor), 100 nM annealed; ATP concentration: 500 uM;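 also: ATP exposure 15 min at 22 °C before imaging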

Here's what some known entries look like.
GTAGAAGGGT | 1.01
AGTGCCATTG | 0.963
TCGGGTTCAG | 1

INPUT: Give me measured switch fluorescence ratio, please, for this sequence: `CATCGCAAAG`
OUTPUT: 4.33

INPUT: Give me measured switch fluorescence ratio, please, for this sequence: `ATCAGGGCAA`
OUTPUT: 1.26

INPUT: Give me measured switch fluorescence ratio, please, for this sequence: `TGCCACAGCA`
OUTPUT: 1.02

INPUT: Give me measured switch fluorescence ratio, please, for this sequence: `TTTTCGACTA`
OUTPUT: 0.97

INPUT: Give me measured switch fluorescence ratio, please, for this sequence: `TTCGTTAAGC`
OUTPUT: 1.07

INPUT: Give me measured switch fluorescence ratio, please, for this sequence: `CGACGTTCAC`
OUTPUT: 1.96

INPUT: Give me measured switch fluorescence ratio, please, for this sequence: `CGTGCCCGGT`
OUTPUT: 1.02

###

switch fluorescence ratio overview
test system: ATP; assay: switch fluorescence ratio, 500 uM ATP over buffer (Cy3 cluster intensity, sum of 5 cycles each) (fold (ratio)); higher = stronger signal-on switching upon ATP binding; sequences stand for … in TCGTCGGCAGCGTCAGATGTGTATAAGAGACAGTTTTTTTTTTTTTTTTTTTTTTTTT…TC; conditions: aptamer strand: ATP DNA aptamer (quencher-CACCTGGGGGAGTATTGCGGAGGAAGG + anchor), 100 nM annealed; ATP concentration: 500 uM;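 also: ATP exposure 15 min at 22 °C before imaging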
Write no unit; give the number alone.

TTGTATGTAG | 1.02
AACGAAAATG | 0.997
GGATTTAAAT | 0.976

INPUT: Give me measured switch fluorescence ratio, please, for this sequence: `TGAGGTCGCG`
OUTPUT: 0.976

INPUT: Give me measured switch fluorescence ratio, please, for this sequence: `AGTTTCCTGC`
OUTPUT: 1.01

INPUT: Give me measured switch fluorescence ratio, please, for this sequence: `AAGATTATGG`
OUTPUT: 0.984

INPUT: Give me measured switch fluorescence ratio, please, for this sequence: `ACGGGTTGAG`
OUTPUT: 1.03

INPUT: Give me measured switch fluorescence ratio, please, for this sequence: `ATGGGCGTAT`
OUTPUT: 1.04

INPUT: Give me measured switch fluorescence ratio, please, for this sequence: `CATGGCACGT`
OUTPUT: 1.02

INPUT: Give me measured switch fluorescence ratio, please, for this sequence: `AGGAATTGGA`
OUTPUT: 1.01

INPUT: Give me measured switch fluorescence ratio, please, for this sequence: `GGCAGGAAAG`
OUTPUT: 1

###

test system: ATP; assay: switch fluorescence ratio, 500 uM ATP over buffer (Cy3 cluster intensity, sum of 5 cycles each) (fold (ratio)); higher = stronger signal-on switching upon ATP binding; sequences stand for … in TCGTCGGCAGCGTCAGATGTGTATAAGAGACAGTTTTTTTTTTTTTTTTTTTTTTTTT…TC; settings: aptamer strand: ATP DNA aptamer (quencher-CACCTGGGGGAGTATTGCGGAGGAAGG + anchor), 100 nM annealed; ATP concentration: 500 uM;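 also: ATP exposure 15 min at 22 °C before imaging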
readout kind: switch fluorescence ratio
Write no unit; give the number alone.

Here's what some known entries look like.
GCTAGTCTGA | 0.995
TGGGGTTCAC | 0.998
TTGGGTTCTT | 0.994

INPUT: Give me measured switch fluorescence ratio, please, for this sequence: `GCTACAGGGG`
OUTPUT: 1.18

INPUT: Give me measured switch fluorescence ratio, please, for this sequence: `TTTCGTGTGT`
OUTPUT: 0.97

###

tested on: ATP; assay: switch fluorescence ratio, 500 uM ATP over buffer (Cy3 cluster intensity, sum of 5 cycles each) (fold (ratio)); higher = stronger signal-on switching upon ATP binding; sequences stand for … in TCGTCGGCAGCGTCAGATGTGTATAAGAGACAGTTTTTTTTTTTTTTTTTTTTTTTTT…TC; details: aptamer strand: ATP DNA aptamer (quencher-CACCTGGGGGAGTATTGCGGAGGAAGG + anchor), 100 nM annealed; ATP concentration: 500 uM;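 also: ATP exposure 15 min at 22 °C before imaging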
readout kind: switch fluorescence ratio
Write no unit; give the number alone.

TTGAAAATGT | 0.96
TCGTTTATTT | 1.02
AGGTCCGCTT | 1.32
GCAGGGGCTC | 1
GAAACTAGTT | 0.992

Please find the next sequence below.
INPUT: Give me measured switch fluorescence ratio, please, for this sequence: `ATCGTGGGTG`
OUTPUT: 0.984

###

tested on: ATP; test: switch fluorescence ratio, 500 uM ATP over buffer (Cy3 cluster intensity, sum of 5 cycles each) (fold (ratio)); higher = stronger signal-on switching upon ATP binding; sequences stand for … in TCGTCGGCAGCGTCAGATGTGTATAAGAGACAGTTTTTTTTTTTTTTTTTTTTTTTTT…TC; details: aptamer strand: ATP DNA aptamer (quencher-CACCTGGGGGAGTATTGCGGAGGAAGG + anchor), 100 nM annealed; ATP concentration: 500 uM;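 also: ATP exposure 15 min at 22 °C before imaging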
switch fluorescence ratio overview
Write no unit; give the number alone.

INPUT: Give measured switch fluorescence ratio for `TGGACACTGC` (ATP).
OUTPUT: 1.02

INPUT: Give measured switch fluorescence ratio for `ATATTGATAT` (ATP).
OUTPUT: 1.01

INPUT: Give measured switch fluorescence ratio for `TGGGTGTAT` (ATP).
OUTPUT: 1.01

INPUT: Give measured switch fluorescence ratio for `TTAGTTAAAT` (ATP).
OUTPUT: 1

INPUT: Give measured switch fluorescence ratio for `CTGGATAGAA` (ATP).
OUTPUT: 1.01

INPUT: Give measured switch fluorescence ratio for `GTGTTGATTT` (ATP).
OUTPUT: 0.962

INPUT: Give measured switch fluorescence ratio for `TCTAAGTCGG` (ATP).
OUTPUT: 0.987

INPUT: Give measured switch fluorescence ratio for `TTAGCGGGA` (ATP).
OUTPUT: 1

INPUT: Give measured switch fluorescence ratio for `TTTCCATGGA` (ATP).
OUTPUT: 0.984

INPUT: Give measured switch fluorescence ratio for `AGTTAGGAAG` (ATP).
OUTPUT: 0.973

INPUT: Give measured switch fluorescence ratio for `CTGATAGGGA` (ATP).
OUTPUT: 1.01

INPUT: Give measured switch fluorescence ratio for `GCGGGTATGT` (ATP).
OUTPUT: 1.04

INPUT: Give measured switch fluorescence ratio for `CGTGAGGGTC` (ATP).
OUTPUT: 1

INPUT: Give measured switch fluorescence ratio for `TTGTTGGTCT` (ATP).
OUTPUT: 1.01

INPUT: Give measured switch fluorescence ratio for `TAATAGTGGC` (ATP).
OUTPUT: 1.06
